This collection of values is drawn from ChEMBL document CHEMBL1131672.

- Tested on: Escherichia coli
- procedureText: In vivo inhibitory activity against Escherichia coli in mice
- Type: functional
Item-by-item account of ED50
State the result as a value with its unit after it.

Below, 4 molecules whose answers are already recorded.
1. CCN1CCN(C(=O)N[C@@H](C(=O)N[C@@H]2C(=O)N3[C@@H]2SC(C)(C)[C@@H]3C(=O)O)c2ccccc2)C(=O)C1=O [PIPERACILLIN] | 256 mg/kg
2. CC1(C=CC#N)[C@H](C(=O)O)N2C(=O)C[C@H]2S1(=O)=O (single isomer, unassigned) [Ro-481220] | 15 mg/kg
3. C[C@]1(Cn2ccnn2)[C@H](C(=O)[O-])N2C(=O)C[C@H]2S1(=O)=O.[Na+] [TAZOBACTAM SODIUM] | 7.7 mg/kg
4. C[C@]1(Cn2ccnn2)[C@H](C(=O)[O-])N2C(=O)[C@@H](CO)[C@H]2S1(=O)=O.[Na+] | 3.6 mg/kg

Shifting focus to the molecule that follows.
Asked: Endpoint output: ED50 of C[C@]1(/C=C\C#N)[C@H](C(=O)[O-])N2C(=O)[C@@H](CO)[C@H]2S1(=O)=O.[Na+] . Value?
Given back: 4 mg/kg
